System: TGFβ2 signaling
Experiment: SBE4-Luc
Format: cell-based, human
Settings: Homo sapiens, HEK-293T, read-out: IC50 TGFβ2 signaling inhibition (SBE4-Luc)
pIC50: −log10 of the molar value.

[
  {
    "Molecule": "NC(=O)c1ccc(-c2nc(-c3ccc4c(c3)OCO4)c(-c3ccccn3)[nH]2)cc1 [SB-431542, reference compound]",
    "Assay System": "TGFβ2 signaling",
    "pIC50": 7.15
  }
]

Data credit: paper PMC3419596
